experiment: Drug stability under stress condition, 60° C. open, XRPD and HPLC; assay type: physicochemical; conditions: 60° C., Week 1

# Compound, HPLC peak RT 6.797 min, RRT 0.68, %
measured = [
    ("CNCc1cn(S(=O)(=O)c2ccc(OC)nc2)c(-c2ccccc2F)c1OC [Free base]", 0.43),
]

###

Assay: Drug stability under stress condition, 60° C. open, XRPD and HPLC
Type: physicochemical
Conditions: Day 0
Method: 10 mg and 40 mg of the free base and the fumaric acid salt of 1-(5-(2-fluorophenyl)-4-methoxy-1-((6-methoxypyridin-3-yl) sulfonyl)-1H-pyrrol-3-yl)-N-methylmethanamine were weighed into each vial and stored under stress conditions to investigate stability. […]
Quantity: HPLC peak RT 9.327 min, RRT 0.93 (%)

# Compound, Quantity, Reported Measurement
records = [
    ("CNCc1cn(S(=O)(=O)c2ccc(OC)nc2)c(-c2ccccc2F)c1OC.O=C(O)/C=C/C(=O)O [Fumarate salt]", "HPLC peak RT 9.327 min, RRT 0.93", 0.17),
    ("CNCc1cn(S(=O)(=O)c2ccc(OC)nc2)c(-c2ccccc2F)c1OC [Free base]", "HPLC peak RT 9.327 min, RRT 0.93", 0.18),
]

###

test: Solubility in bio-relevant media (water, SGF, FaSSIF, FeSSIF), HPLC; format: physicochemical; conditions: thermodynamic from solid; FeSSIF, 37° C., 1 h; read-out: Solubility-1 h concentration

# Compound, solubility at 1 h, µg/mL
rows = [
    ("CNCc1cn(S(=O)(=O)c2ccc(OC)nc2)c(-c2ccccc2F)c1OC.O=C(O)/C=C/C(=O)O [Fumarate salt]", 4500),
]

###

test: Drug stability under stress condition, 60° C. open, XRPD and HPLC; assay type: physicochemical; conditions: 60° C., Week 2
Quantity: HPLC peak RT 7.563 min, RRT 0.75 (%)

# Compound, Unit Name, Reported Measurement
records = [
    ("CNCc1cn(S(=O)(=O)c2ccc(OC)nc2)c(-c2ccccc2F)c1OC [Free base]", "%", 4.12),
]

###

assay: Solubility in bio-relevant media (water, SGF, FaSSIF, FeSSIF), HPLC; type: physicochemical; settings: thermodynamic from solid; water, 37° C., 24 h; read-out: Solubility-24 h concentration
Quantity: solubility at 24 h (µg/mL)

# Compound, Unit Name, Reported Measurement
data = [
    ("CNCc1cn(S(=O)(=O)c2ccc(OC)nc2)c(-c2ccccc2F)c1OC.O=C(O)/C=C/C(=O)O [Fumarate salt]", "µg/mL", 5320),
]

Sourced from patent US20250084026A1
